Test system: K-562 leukemia
Assay: NCI tumour cell line growth inhibition, 48 h
Readout Name: TGI

OCC1C2CCC3(OCCO3)C12 (stereo not drawn)
> 100 µM
O=C(O)c1ccc(NCc2nc3ccccc3[nH]2)cc1
> 100 µM
O=C(NCCCl)NCCN1c2nc3ccccc3cc2Sc2cc3ccccc3nc21
> 25 µM
C=C1C(=O)O[C@@H]2C[C@@H]1CC[C@]1(C)O[C@H]1CC/C(C)=C/CC[C@@]2(C)O
> 100 µM
CSCCC(NC(=O)Cc1ccc(C(=O)c2ccccc2)cc1)C(=O)N1CCN(CCCCN2c3ccccc3Sc3cc(N=[N+]=[N-])ccc32)CC1 (stereo not drawn)
> 100 µM

**Q:** System K-562 leukemia. Read-out TGI. Item "O=C(O)CCC(=O)Oc1ccc(O)c2c1CCCC2=O" . Report value.
**A:** > 100 µM

**Q:** System K-562 leukemia. Read-out TGI. Item "O=C1Nc2ccc(O)cc2/C1=C\c1ccncc1" . Report value.
**A:** 56.2 µM

**Q:** System K-562 leukemia. Read-out TGI. Item CC(C)=CC1C(COC(=O)c2ccccc2Cl)C1(C)C (stereo not drawn) . Report value.
**A:** > 100 µM

**Q:** System K-562 leukemia. Read-out TGI. Item "O=S1(=O)OCCOS(=O)(=O)C1(Cl)Cl" . Report value.
**A:** > 100 µM

**Q:** System K-562 leukemia. Read-out TGI. Item "COc1cc(-c2cc(-c3cccs3)c(C#N)c(N3CCOCC3)n2)cc(OC)c1OC" . Report value.
**A:** > 100 µM

**Q:** System K-562 leukemia. Read-out TGI. Item Clc1ccc(C2CC(c3cccc(Nc4ccncc4)c3)=NN2c2ccccc2)cc1 (stereo not drawn) . Report value.
**A:** 5.45 µM

**Q:** System K-562 leukemia. Read-out TGI. Item CCc1cccc(C)c1N1C(=O)C(=O)C(c2nc3ccccc3o2)/C(=N/NC(=S)NN)C1=O (stereo not drawn) . Report value.
**A:** > 100 µM

**Q:** System K-562 leukemia. Read-out TGI. Item COc1cc(N2CCN(C(C)C)CC2)ccc1Nc1nc(Nc2ccc(F)cc2C(=O)NCC(O)CO)c2cc[nH]c2n1 (stereo not drawn) . Report value.
**A:** > 25 µM

* * *

Tested on: SK-OV-3 ovarian
Assay: NCI tumour cell line growth inhibition, 48 h
The compounds listed here are annotated with their TGI.

These recorded examples may help you get a feel for the data.
CCC(CC)c1cc(N[C@H]2CC[C@H](N)C2)n2nccc2n1
> 100 µM
CC(C)(C)[Si](C)(C)OC1[C@@H](O[Si](C)(C)C(C)(C)C)[C@@H](CNC(=O)NC(=O)NC(=O)CCl)O[C@H]1n1cnc2c(NC(=O)Nc3ccccc3)ncnc21 (some centres undefined)
17.5 µM
CCSc1nc(NC(C)c2ccccc2)c2cnn(CO)c2n1 (centres undefined)
> 100 µM

**Q:** Supply measured TGI of N#CC(C#N)=Cc1ccc(C(O)P(=O)(O)O)cc1 (centres undefined) in your reply.
**A:** > 100 µM

* * *

Tested on: MDA-N
Assay: NCI tumour cell line growth inhibition, 48 h
Readout Name: TGI

These recorded examples may help you get a feel for the data.
O=C(NC(=O)c1ccccc1)OC(c1ccccc1)C1CO1 (stereo not given)
> 100 µM
Cc1n[nH]c(=O)n1Nc1ccccc1
> 100 µM
O=C1C=CC(=O)c2c(O)c(NCCO)c(Cl)c(O)c21
3.42 µM
O=C1C(Cl)=C(N2CCN(CCOCCO)CC2)C(=O)c2ccccc21
4.17 µM
Cc1ccc(C(=O)O)c(/C=C2\Cc3cc(C)cc(C)c3C2=O)c1
> 100 µM
CN(C)CCOc1ccc2[nH]c(C(=O)N3CC(CCl)c4c3cc([N+](=O)[O-])c3ccccc43)cc2c1 (stereo not given)
48.5 µM
COC(C)(C)[C@@H]1CCCN1C1=C(C)C(=O)OC1
> 100 µM
O=C(O)C1CC(C2CCCCN2)CN2CCCCC12 (stereo not given)
> 100 µM
COc1ccc(C(=O)N2CCN(c3ccc4c(c3)OCC(=O)N4)CC2)cc1OC
> 100 µM

**Q:** System MDA-N. Read-out TGI. Item "Fc1cc(C2=Nn3c(CNc4ccc(Cl)cc4)nnc3S/C2=C\c2ccc(-c3ccc(Cl)cc3)o2)c(Cl)cc1Cl" . Report value.
**A:** > 100 µM
